System: HCT-15 colon
Assay: NCI tumour cell line growth inhibition, 48 h; in the data active means GI50 below about 0.43 µM; inactive means the rest
Your response should consist of one outcome taken from active, inactive

COc1cccc2c1C(=O)c1c(O)c3c(c(O)c1C2=O)C[C@@](O)(C(C)=O)C[C@@H]3OC1CC(N(C)C)C(O)C(C)O1 (stereo partly drawn)
active
COc1ccc(C2c3cc4c(c(OC)c3CC3OCC(=O)C32)OCO4)cc1OC (stereo not drawn)
active
CCOC(=O)C1=C(C)NC(C)=C(C(=O)OCC)C1c1cc(Br)c(O)c(OC)c1
inactive
CC(=O)NC1CCCN(O)C(=O)/C=C(/C)CCOC(=O)C(NC(C)=O)CCCN(O)C(=O)/C=C(/C)CCOC(=O)C(NC(C)=O)CCCN(O)C(=O)/C=C(/C)CCOC1=O.[Fe] (stereo not drawn)
inactive

Query molecule follows.
Fill in: this test's call for `O=S1CCN(Cc2ccc(-c3ccc4ncnc(Nc5ccc(OCc6ccccc6)c(F)c5)c4c3)o2)CC1` is ___
inactive
